Entries annotated with measured pIC50
- Assay target: Eukaryotic system (eukaryotic cytoplasmic ribosome)
- Measurement protocol: Eukaryotic translation inhibition, coupled transcription/translation, luciferase detection
- Assay type: biochemical
- Condition label: Table 3; read-out: Translation Inhibition IC50^Euk
pIC50: −log10 of the molar value.
Measure: pIC50

Compound	Assay target	Observed
C[C@@H](N)[C@H]1O[C@@H](OC2C(O)[C@H](NC(=O)[C@@H](O)CCN)CC(N)[C@H]2O[C@H]2OC(CO)[C@@H](O)C(O)C2N)C(O)C1O (some centres unmarked)	Eukaryotic system (eukaryotic cytoplasmic ribosome)	5.34
C[C@@H](O)C1O[C@H](O[C@@H]2C(N)C[C@@H](NC(=O)[C@@H](O)CCN)[C@@H](O)C2O[C@@H]2O[C@H](CN)[C@H](O)C2O)[C@@H](N)C(O)[C@@H]1O (some centres unmarked) [NB84, reference compound]	Eukaryotic system (eukaryotic cytoplasmic ribosome)	5.55
NCC[C@H](O)C(=O)N[C@@H]1CC(N)[C@@H](O[C@H]2OC(CO)[C@@H](O)[C@H](O)C2N)[C@H](O[C@@H]2O[C@H](CN)[C@H](O)C2O)C1O (some centres unmarked) [NB54, reference compound]	Eukaryotic system (eukaryotic cytoplasmic ribosome)	4.62
C[C@H](N)[C@H]1O[C@@H](OC2C(O)[C@H](N)CC(N)[C@H]2O[C@H]2OC([C@@H](C)O)[C@@H](O)C(O)C2N)C(O)C1O (some centres unmarked)	Eukaryotic system (eukaryotic cytoplasmic ribosome)	5.83
C[C@@H](N)[C@H]1O[C@@H](O[C@@H]2[C@@H](O)[C@H](NC(=O)[C@@H](O)CCN)C[C@H](N)[C@H]2O[C@H]2O[C@H]([C@@H](C)O)[C@@H](O)[C@H](O)[C@H]2N)[C@H](O)[C@@H]1O	Eukaryotic system (eukaryotic cytoplasmic ribosome)	6.05
